system: HIV-1 Tat (Human immunodeficiency virus 1, UniProt P04608 P04608:1-86)
protocol-text: filter; UCU bulge indistinguishable from UUU
condition-label: stem-loop with bulge
result-type: Kd (nM)
The answer is to be given in nM; state only the numeric part.

Request: Given the entry HIV-1 TAR RNA (UCU bulge) (ssRNA, [24]) RNA: GGGUCUCUCUGGUUAGACCAGAUCUGAGCCUGGGAGCUCUCUGGCUAACUAGGGAACCC , report its measured Kd.
Result: 12
